inhibition by entry:
Target: Perilipin-5 (Homo sapiens) + 1-acylglycerol-3-phosphate O-acyltransferase ABHD5 (Homo sapiens) (UniProt Q00G26+Q8WTS1)
Sequence (Q00G26 whole entry, looked up): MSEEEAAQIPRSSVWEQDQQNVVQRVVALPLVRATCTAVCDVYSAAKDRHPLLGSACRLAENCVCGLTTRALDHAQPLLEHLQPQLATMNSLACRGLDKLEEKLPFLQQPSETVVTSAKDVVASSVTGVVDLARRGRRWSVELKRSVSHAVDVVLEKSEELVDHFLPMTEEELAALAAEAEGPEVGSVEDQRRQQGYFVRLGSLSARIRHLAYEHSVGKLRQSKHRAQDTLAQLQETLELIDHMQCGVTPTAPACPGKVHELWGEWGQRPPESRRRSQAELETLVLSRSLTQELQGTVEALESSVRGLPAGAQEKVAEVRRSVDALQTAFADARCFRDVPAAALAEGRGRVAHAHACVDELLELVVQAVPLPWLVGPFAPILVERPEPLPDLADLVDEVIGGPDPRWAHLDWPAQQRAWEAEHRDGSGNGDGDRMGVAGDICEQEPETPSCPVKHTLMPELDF
Sequence (Q8WTS1 whole entry, looked up): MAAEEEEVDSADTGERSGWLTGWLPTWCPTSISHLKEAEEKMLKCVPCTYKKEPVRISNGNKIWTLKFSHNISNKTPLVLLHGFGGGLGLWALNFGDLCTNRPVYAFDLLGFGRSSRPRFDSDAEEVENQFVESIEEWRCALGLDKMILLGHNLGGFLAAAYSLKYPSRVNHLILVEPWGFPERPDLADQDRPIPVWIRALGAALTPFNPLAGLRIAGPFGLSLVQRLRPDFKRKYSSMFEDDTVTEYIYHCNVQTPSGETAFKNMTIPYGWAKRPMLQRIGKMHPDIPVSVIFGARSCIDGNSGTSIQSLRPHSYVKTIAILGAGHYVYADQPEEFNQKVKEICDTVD
Experiment: blockers of ABHD5 binding to perilipin-5 – biochemical, luminescence, confirmation (AID 651612);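 further: 0% = DMSO vehicle wells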
Conditions: biochemical ABHD5-PLIN5 interaction, at 4 µM, active compounds read high
The whole screen tested about 2,200 compounds, of which about 1,500 (68%) were called active. So high a share suggests a set chosen from earlier hits. Only a sample is shown.
reported metric: inhibition (%)

compound: Cc1nnnn1/C(=C\c1ccccc1)C(=O)OCC(=O)N1CC2(C)CC1CC(C)(C)C2 (stereo unspecified)
test value: 54.9
--
compound: Cc1nc2sc(C(c3ccco3)N3CCOCC3)c(O)n2n1 (stereo unspecified)
test value: 5.85
--
compound: O=C(/C=C/c1ccc(Cl)cc1Cl)c1cccnc1
test value: 98.6
--
compound: O=[N+]([O-])c1c(NCCO)cc(Sc2nc3ccccc3s2)c2nonc12
test value: 51.7
--
compound: Cc1cccc(C)c1NC(=O)C(Cl)C(=O)c1ccccc1 (stereo unspecified)
test value: 68.9
--
compound: COC(=O)/C=C\C(=O)Nc1cccc([N+](=O)[O-])c1
test value: 83.5
--
compound: O=C(Nc1ccccc1)c1nnsc1S(=O)(=O)c1ccc(Cl)cc1
test value: 64.1
--
compound: CCOC(=O)C(=Cc1ccccc1OC)C(=O)OCC
test value: 60.3
--
compound: Cc1cc2c(c(=O)n1Cc1ccco1)C(c1ccccc1)C(C#N)=C(N)O2 (stereo unspecified)
test value: 19
--
compound: O=C(/C=C/c1ccc(Cl)c([N+](=O)[O-])c1)c1ccc(O)cc1
test value: 90.2
--
compound: N#Cc1ccccc1S(=O)(=O)N1CCN(Cc2c(O)ccc3ccccc23)CC1
test value: 53
